These entries and their values trace back to the OPERA property sets (Mansouri et al. 2018).

Recorded Metric: logP
Answers are plain numbers.

OCCOCCOCCO = -1.75
CC(=O)NCCc1c[nH]c2ccccc12 = 1.41
c1ccc2sc(SN(C3CCCCC3)C3CCCCC3)nc2c1 = 4.8
C=CC(=O)NCCc1cnc[nH]1 = -0.21
COC(=O)c1ccccc1S(=O)(=O)NC(=O)Nc1nc(C)cc(C)n1 = 1.2

Items follow; give logP for each.
1. COc1cc(Cl)c(Cl)c(Cl)c1
2. COc1ccc(-c2cc(C#N)c(Cl)nc2C)cc1OC
3. CC(C)CN(CC(C)C)N=O
4. CC(C)C1(C)N=C(c2ncccc2C(=O)O)NC1=O (stereo not given)

Outgoing:
1. 4.22
2. 2.86
3. 2.34
4. 0.22

Report logP for every entry below.
1. CN1C(=O)CC[C@H]1c1cccnc1
2. CNc1ncnc2c1ncn2C1OC(CO)CC1F (stereo not given)
3. Clc1cc(Cl)c2cc(Cl)cc(Cl)c2c1
4. c1ccc2c(c1)-c1cccc3c1c-2cc1ccccc13
5. Cc1nc(N2CCOCC2)c(C#N)cc1-c1ccccc1

Outgoing:
1. 0.07
2. 0.27
3. 6.19
4. 5.78
5. 3.65

List the reported logP of each compound below.
1. CCC(=O)OCC1OC(n2cnc3c(OC)ncnc32)C(OC(=O)CC)C1OC(=O)CC (stereo not given)
2. COc1ccc2c3c1O[C@H]1[C@@H](O)C=C[C@H]4[C@@H](C2)NCC[C@@]341
3. Cc1cc(Cc2ccc(Cl)c(Cl)c2)c(Cl)cc1Cl

Outgoing:
[2.75, 0.69, 7.26]

Provide reported logP for each item, in the same order as listed.
1. Nc1ccc([N+](=O)[O-])cc1Cl
2. C[Si]1(C)O[Si](C)(C)O[Si](C)(C)O[Si](C)(C)O[Si](C)(C)O[Si](C)(C)O1
3. CCn1c2ccccc2c2ccccc21

Outgoing:
2.14
9.06
4.49

----------
Recorded Metric: logP
Give bare numbers.

# annotated cases, reported logP shown
Nc1nc2c(ncn2COCCO)c(=O)[nH]1 = -1.56
NCCc1nccs1 = 0.16
Nc1cc2ccccc2cc1N = 1.54
CC=CCCCCC = 4.51
Brc1cccc(-c2ccccc2)c1 = 4.85

Could you tell me logP for each of these molecules? They are listed below.
1. O=C(O)c1cccnc1Nc1cccc(C(F)(F)F)c1
2. CCCNC(=O)CCC(NS(=O)(=O)c1ccc(C)cc1)C(=O)O (stereo not given)
3. CC(=O)n1ncc2c(O)ncnc21
4. O=C1OC(=Nc2ccc(Cl)cc2)C2=C1CCCC2
5. Cc1ccc(S(=O)(=O)N(C)C(=O)c2ccccc2)cc1
6. CCC(=O)OC
7. CC(Cc1ccc(C(C)(C)C)cc1)CN1C[C@@H](C)O[C@@H](C)C1 (single isomer, unassigned)
8. O=CC=Cc1ccc([N+](=O)[O-])o1

Outgoing:
1: 4.43; 2: 0.02; 3: -0.35; 4: 3.84; 5: 2.95; 6: 0.84; 7: 4.93; 8: 0.96

----------
Recorded Metric: logP
Numbers only.

CCCCNCc1ccccc1 = 2.59
C=CCOCCO = -0.1

Switching to the query record.
Incoming: Give its logP value. Item: `COC(=O)c1cc2ccccc2o1`
Outgoing: 2.53

----------
Condition Notes: 25 °C
Recorded Metric: solubility (mM)
Answers are plain numbers, in mM.

Examples with answers:
O=[N+]([O-])c1ccc2c3c(cccc13)CC2 = 0.00457
CCc1ccccc1O = 43.7

Query compound follows.
Incoming: Dear colleague, I am looking for the recorded solubility of the following compound: `O=C(O)C(Br)Br`
Outgoing: 9690

----------
Could you please report measured logP for the items listed next?

Here's what some known entries look like.
CCCCCCN1CC(C(=O)O)CC1=O (stereo not given) = 1.6
Cc1ccc(C(C)C)c(Cl)c1Cl = 5.5
ClC1=CC2(Cl)C3CC(Cl)C(Cl)C3C1(Cl)C2(Cl)Cl (stereo not given) = 5.56
c1ccc2c(c1)ccc1cc3ccc4ccccc4c3nc12 = 6.45
COc1ccc2c(c1)OCC1(O)c3cc4c(cc3OC21)OCO4 (stereo not given) = 2.58
Cc1cn(C2CC(O)C(CO)O2)c(=O)[nH]c1=S (stereo not given) = -0.07
CC(=O)OCN1C(=O)C(C)=C(C)C1=O = 0.65
CCN1CCCC1CNC(=O)c1c(OC)ccc(Br)c1O (stereo not given) = 2
NS(=O)(=O)c1cc2c(cc1C(F)(F)F)NC(Cc1ccccc1)NS2(=O)=O (stereo not given) = 1.89
CC(C)(C)NSc1nc2ccccc2s1 = 4.67

Provide logP values for the following items, in order.
1. O=C(O)CCCCn1nnc2ccccc21
2. CC(C)(C)c1cccc(OP(=O)(Oc2ccccc2)Oc2ccccc2)c1

Outgoing:
1. 0.48
2. 5.12

----------
Field: logP. Provide a value for each of the compounds that follow.
Give bare numbers.

The cases that follow already have their logP on record.
COc1nc(C)nc(=NC(O)=NS(=O)(=O)c2ccccc2C(=O)O)[nH]1 = 1.7
Cc1ccccc1C1=CCN(C)CC1 = 3.1
C[C@H](CSC(=O)c1ccccc1)C(=O)N1C[C@@H](Sc2ccccc2)C[C@H]1C(=O)O = 4.4
Nc1ccc(C(=O)NCC(=O)O)cc1 = -0.89
CN(C)C(N)=S = -0.43
CCOC1OC2OC3(C)CC(O)C4C(C)CCC(C1C)C24OO3 (stereo not given) = 2.7

# batch size: 3; output logP per entry
1. CCC(=O)n1ncc2c(O)ncnc21
2. NC(=O)c1ccccc1NCC(O)CO (stereo not given)
3. CCCCc1oc(C)cc(=O)c1O

Outgoing:
0.3
-0.8
1.92

Please look at the items below and tell me logP for each one, in order.
1. CCNC(=O)CCC(NS(=O)(=O)c1ccccc1)C(=O)O (stereo not given)
2. Cn1cccc(O)c1=O
3. N=C(N)NN=Cc1cccs1
4. COC(=O)n1c(-c2cscn2)nc2ccccc21
5. COC(=O)c1ccccc1CS(N)(=O)=O
6. Clc1ccc(Nc2cc3nc4ccccc4n(-c4ccc(Cl)cc4)c-3cc2=NCCCN2CCCCC2)cc1
7. O=C1CCCC1
8. Oc1ccc2c(c1)OCC1c3cc4c(cc3OC21)OCO4 (stereo not given)

Outgoing:
1: 0.15; 2: -0.4; 3: 0.98; 4: 2.05; 5: 0.37; 6: 8.18; 7: 0.38; 8: 2.61

----------
Condition Notes: 23.0 °C
Recorded Metric: log10 OH rate constant (cm³/molecule/s)
One number for each entry.

Worked cases, log10 OH rate constant (cm³/molecule/s) given:
CC(=O)C(C)O (stereo unspecified) = -11
CC1=CCCC(C)=CCC(C)(C)C=CC1 = -9.54
CCC(=O)CO = -11.1
O=C1C=CC(=O)O1 = -11.8
C=CC(C)(O)CCC=C(C)C (stereo unspecified) = -9.8
CC(=O)CC(C)(C)O = -11.4

Respectfully, I request log10 OH rate constant (cm³/molecule/s) for each entry included below.
1. COC(OC)OC
2. O=C1CC=CO1
3. C=C1[C@H]2CC[C@@H]3[C@H]2C(C)(C)CCC[C@]13C
4. CCC(C)OCOC(C)CC (stereo unspecified)
5. CCC(C)(O)CC(C)C (stereo unspecified)

Outgoing:
[-11.2, -10.4, -10.3, -10.4, -10.9]

----------
Binning scheme for logP: low end: < 2; middle: ≥ 2 and < 3; high end: ≥ 3

Here's what some known entries look like.
Nc1c(Cl)c(Cl)c(N)c2c1C(=O)c1ccccc1C2=O = high end
NS(=O)(=O)c1nc2ccc(OCCO)cc2s1 = low end
CC(=NNC(N)=Nc1ccccc1)c1ccccc1 = middle
N#CCCOc1cccc2ccccc12 = middle

Incoming: Sort into band: CC(CCC(=O)NCC(=O)O)C1CCC2C3C(O)CC4CC(O)CCC4(C)C3CCC12C (stereo unspecified)
Outgoing: middle

Incoming: Lab note: sort `C[C@@H]1CC[C@H](C)O1` into the matching logP band.
Outgoing: low end

----------
Condition Notes: 20 °C
Recorded Metric: solubility (mM)
Answers are plain numbers, in mM.

Consider the worked cases shown below.
COc1cc(C(Cl)(Cl)Cl)cc(Cl)n1 = 0.0433
CC(C)OC(=O)c1ccccc1C(=O)OC(C)C = 1.33
CCOP(=S)(OCC)ON=C(C#N)c1ccccc1Cl = 0.00511
CCC(CO)[N+](=O)[O-] (stereo unspecified) = 453
C=CCN(CC=C)c1c(C)cc(OC(=O)NC)cc1C = 0.255
N#Cc1cccnc1 = 1300

Consider the following items and state reported solubility for each.
1. CCC(Cl)Cl
2. CN(C)c1ccncc1
3. Clc1ccc(-c2ccc(Cl)cc2)cc1
4. CC1=C(c2ccccc2)C(=O)N(C(C)(C)c2cc(Cl)cc(Cl)c2)CO1
5. CN(C)c1ccc(C(=O)c2ccc(N(C)C)cc2)cc1
6. N#Cc1ccncc1
7. O=C1OC2(c3ccc(O)cc3Oc3cc(O)ccc32)c2ccccc21

Outgoing:
1: 23.9; 2: 622; 3: 0.000278; 4: 0.000478; 5: 1.49; 6: 384; 7: 0.15
